# measured-target: T1, CRTH2R (UniProt Q9Y5Y4 1-395, limits assumed)
# T1 construct: whole, on cells; also called Prostaglandin D2 receptor 2 (DP2 or CRTH2) receptor
# T1 sequence (looked up): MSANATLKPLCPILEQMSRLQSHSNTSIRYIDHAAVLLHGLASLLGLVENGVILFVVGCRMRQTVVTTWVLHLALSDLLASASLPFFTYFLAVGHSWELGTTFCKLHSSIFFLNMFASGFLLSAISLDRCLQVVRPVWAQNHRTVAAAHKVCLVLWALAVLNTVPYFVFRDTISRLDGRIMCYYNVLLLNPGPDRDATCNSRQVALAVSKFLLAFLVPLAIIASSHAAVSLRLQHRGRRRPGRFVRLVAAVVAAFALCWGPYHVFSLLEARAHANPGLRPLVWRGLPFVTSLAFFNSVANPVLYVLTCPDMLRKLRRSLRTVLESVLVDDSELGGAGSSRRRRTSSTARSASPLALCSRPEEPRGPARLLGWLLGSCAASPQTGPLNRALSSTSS
# protocol-details: flow cytometry (MFI), CHO CRTH2R-positive cells against parental CHO cells, 3-fold titration from 100 nM; grey = CRTH2R cells, black = parental cells (no legend on the panel)
pEC50: −log10 of the molar value.
reported-metric: pEC50

[
  {
    "binder": "CRTH2 35 (antibody, V domains shown) VH: QVQLVQSGAEVKKPGSSVKVSCKASGGTFRSYAISWVRQAPGQGLEWMGGIIPISGTTNYAQKFQGRVTITADESTSTAYMELSSLRSEDTAVYYCARANQHFTRIFGNYQIYFGHFGYHYYGMDVWGQGTLVTVSS VL: QSALTQPASVSGSPGQSITISCTGTSSDIGGYEFVSWYQQHPGKAPKLMIYGVSRRPSGVSNRFSGSKSGNTASLTISGLQAEDEADYYCGSYTSSSTPYVFGGGTKLTVL",
    "reported-metric": "pEC50",
    "value-measured": 7.90
  }
]
